Reported apparent KD of MS2 coat protein values for the following sequences.
Tested on: MS2 coat protein
experiment notes: apparent KD of MS2 coat protein; designed switch direction (-1 OFF switch, 1 ON switch): 1; higher = weaker reporter binding
test conditions: input ligand: microRNA oligo, concentration not stated
measure: apparent KD of MS2 coat protein (nM)

1) GCCAUCGAGUGAGGAUAUGGCACCGAAACGGUGCCAGAAGGCAUGUCAAUUGACAUGAGGAUCACCCAUGUAUUAUCGAUGGCA [Mat - Same State NG 1 - JL mod - D87] (Eterna round: R96, puzzle: Same State NG 1) : 726
2) GCCGGCUGGUGAGGAUAUGGCACCUUAUUGGUGCCAGAAGGCAUGUCAAUUGACAUGAGGAUCACCCAUGUGUUGUCGUUGGCG [salish99_SSNG1_r04_609] (Eterna round: R96, puzzle: Same State NG 1) : 72.4
3) UGUUAGUAGACAGGAUAUUGAAUGUUAAGUAUUAACAUGAGGAUCACCCAUGUAUUAGAUUGGUACAAGAAGGGUCAAGUAAGU [JR_SSNG2_Sub011] (Eterna round: R96, puzzle: Same State NG 2) : 540
4) AAUAUUUAUGCAGGAUAUGAUUAACAUGAGGAUCACCCAUGUGGUGUUGUGAGUAAGGAGAGUGAUCAGAAGGGCAUUUUUUUU [JMF's solution 73] (Eterna round: R96, puzzle: Same State NG 2) : 271
5) AGCUAUCGAAAACGAUAGCAUAAGCAUGUACAUGAGGAUCACCCAUGUCAUGUACAAGCUUUUUGCUCGUCUUAAAA [JL zipper 27] (Eterna round: R96, puzzle: Sensor for hsa-mir-208a) : 14.3
6) UAGUGCAUUAGAGGAUAUUCUUACGACACGAGUAAGACAUGAGGAUCACCCAUGUUGUGGCAUGGGAAGAAGGCUGAUGUGCUA [Omei SS(NG)2 Bv9] (Eterna round: R96, puzzle: Same State NG 2) : 45.3
7) ACAUGAGGAUCACCCAUGUAUGCUCAGGAAACUGUGCAGCAUGAGGAUAUGGAUCCUAAUUGGAUCCAGAAGGCGUGAAUUAUU [Fiskers NG3ss - 25] (Eterna round: R96, puzzle: Same State NG 3) : 692
8) ACCGCGUUUCGCGCCUACAUGAGGAUCACCCAUGUUUGUAGGCAGGAUAUCGUCCGCUCUGCGGGCGAGAAGGGCUGUUGUGGU [salish99_SSNG3_R04_028] (Eterna round: R96, puzzle: Same State NG 3) : 42.9
9) UUUGAAUUGCAAGGAUAUCUUAUUUAGAUUUUAAGAGAAGGUGCUUUACAGUUACAUGAGGAUCACCCAUGUCUUUCUUUUUAU [JR_SSNG1_Sub063] (Eterna round: R96, puzzle: Same State NG 1) : 19.3
